target: Recombinant STAT3 protein (STAT3 (G127-I722)) (Homo sapiens, UniProt P40763); construct: Recombinant STAT3 protein (STAT3 (G127-I722)); assay: STAT3 Fluorescence Polarization (FP) Assay; type: binding; conditions: STAT3 (G127-I722) 25 nM, probe 5-FAM-GpYLPQTV-NH2 2 nM, 45-minute incubation; read-out: STAT3 (FP assay IC50 class)
Sequence (P40763 127-722): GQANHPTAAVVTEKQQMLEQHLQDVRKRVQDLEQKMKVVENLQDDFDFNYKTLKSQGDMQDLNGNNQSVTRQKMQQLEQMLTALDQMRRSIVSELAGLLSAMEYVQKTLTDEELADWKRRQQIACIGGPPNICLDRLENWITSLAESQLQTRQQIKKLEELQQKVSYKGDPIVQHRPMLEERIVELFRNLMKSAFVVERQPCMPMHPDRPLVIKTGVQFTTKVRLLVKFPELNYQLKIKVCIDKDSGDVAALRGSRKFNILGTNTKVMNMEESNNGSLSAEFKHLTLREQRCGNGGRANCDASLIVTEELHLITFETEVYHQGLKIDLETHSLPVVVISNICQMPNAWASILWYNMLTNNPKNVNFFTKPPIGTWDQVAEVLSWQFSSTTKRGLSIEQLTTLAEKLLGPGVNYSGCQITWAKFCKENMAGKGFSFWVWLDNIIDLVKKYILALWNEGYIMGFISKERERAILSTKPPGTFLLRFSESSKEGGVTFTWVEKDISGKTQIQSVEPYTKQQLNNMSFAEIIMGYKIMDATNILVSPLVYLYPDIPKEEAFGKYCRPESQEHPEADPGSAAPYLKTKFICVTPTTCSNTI
readout_label: IC50

# annotated cases, reported IC50 shown
INSERT INTO measurements (compound, readout_label, reported_measurement) VALUES
  ('O=C(N[C@H]1CCC[C@H]2CC[C@@H](C(=O)N3CC(c4cnccn4)C3)N2C1=O)c1cc2cc(C(F)(F)P(=O)(O)O)ccc2s1', 'IC50', '100 to 1000 nM'),
  ('COc1ncncc1C1CN(C(=O)[C@@H]2CC[C@@H]3CCC[C@H](NC(=O)c4cc5cc(C(F)P(=O)(O)O)ccc5s4)C(=O)N32)C1 (stereo partly drawn)', 'IC50', '100 to 1000 nM'),
  ('O=C(/C=C/c1ccc(C(F)(F)P(=O)(O)O)cc1)N[C@H]1CCCC[C@H]2CC[C@@H](C(=O)N3Cc4cnn(-c5ccccc5)c4C3)N2C1=O', 'IC50', '1000 to 10000 nM'),
  ('Cn1cncc(C2CN(C(=O)[C@@H]3CC[C@@H]4CCC[C@H](NC(=O)c5cc6cc(C(F)P(=O)(O)O)ccc6s5)C(=O)N43)C2)c1=O (stereo partly drawn)', 'IC50', '1000 to 10000 nM');

// IC50 lookup, key: CO[C@H]1CC[C@@H](NC(=O)[C@@H]2CC[C@@H]3CCC[C@H](NC(=O)c4cc5cc(C(F)P(=O)(O)O)ccc5s4)C(=O)N32)C1 (stereo partly drawn)
1000 to 10000 nM

// IC50 lookup, key: N#C[C@@H]1[C@@H](c2ccccc2)CN(C(=O)[C@@H]2CC[C@@H]3CCCC[C@H](NC(=O)c4cc5cc([C@H](F)P(=O)(O)O)ccc5s4)C(=O)N32)C12CC2 (single isomer, unassigned)
1000 to 10000 nM

Cited source: patent US20250215029A1
